Values were extracted from paper PMC3006138.

Tested on: human MDR1
Assay: MDR1-MDCK permeability
Settings: dog, MDCK-MDR1

{"Compound": "C[C@H]1O[C@@H](O[C@H]2[C@@H](O)C[C@H](O[C@H]3[C@@H](O)C[C@H](O[C@H]4CC[C@@]5(C)[C@H](CC[C@@H]6[C@@H]5C[C@@H](O)[C@]5(C)[C@@H](C7=CC(=O)OC7)CC[C@]65O)C4)O[C@@H]3C)O[C@@H]2C)C[C@H](O)[C@@H]1O [Digoxin, reference compound]", "Papp A→B [×10⁻⁶ cm/s]": 0.13}

----------
Assay: in vivo
Conditions: male, NMRI, mouse, po, 200 mg/kg/day

{"Molecule": "CC1CS(=O)(=O)CCN1/N=C/c1ccc([N+](=O)[O-])o1 (stereo not shown) [Nifurtimox]", "half-life": "3.12 h"}
